Data provenance: the supplement of paper PMC10307832

# Tested on: UMC-11
# experiment.notes: relative viability (nuclei count vs DMSO), 5 days (fraction); higher = more cells survive
# condition: first compound 0.8 µM
Label Condition met when relative viability is strictly below 0.7; at or above that, label Condition not met.

Examples from the recorded data:
[[record]]
compound = "Oc1nc(-c2ccc(C(F)(F)F)cc2)nc2c1CSCC2 [XAV939] + COc1cccc2cc(-c3nc([C@H]4CC[C@H](C(=O)O)CC4)n4ncnc(N)c34)[nH]c12 [OSI-027] (partner 0.5 µM)"
discrete_label = "Condition met"

[[record]]
compound = "C=C1C(=O)O[C@@H](CCCCCCCC)[C@@H]1C(=O)O [C-75] + N=C(N)NC(=N)NCCc1ccccc1 [Phenformin] (partner 250 µM)"
discrete_label = "Condition met"


Now examine the next entry.
Check if relative viability falls below 0.7 for Oc1nc(-c2ccc(C(F)(F)F)cc2)nc2c1CSCC2 [XAV939] + CS(=O)(=O)CCNCc1ccc(-c2ccc3ncnc(Nc4ccc(OCc5cccc(F)c5)c(Cl)c4)c3c2)o1 [Lapatinib] (partner 2 µM) . Condition not met

* * *

# System: COR-L23
# experiment.notes: relative viability (nuclei count vs DMSO), 5 days (fraction); higher = more cells survive
# condition: first compound 0.1265 µM
Measured relative viability accompanies every entry in the list below.

[[record]]
molecule = "O=C(O)c1ccc(-c2c[nH]c3ncc(-c4ccccc4)cc23)cc1C1CCCC1 + C[C@]1(O)C[C@@H](c2nc(-c3ccc4ccc(-c5ccccc5)nc4c3)c3c(N)nccn32)C1 [Linsitinib] (partner 1 µM)"
result = 0.951

[[record]]
molecule = "O=C(O)c1ccc(-c2c[nH]c3ncc(-c4ccccc4)cc23)cc1C1CCCC1 + Cc1cc(Nc2cc(N3CCN(C)CC3)nc(Sc3ccc(NC(=O)C4CC4)cc3)n2)n[nH]1 [Tozasertib] (partner 0.1 µM)"
result = 0.177


Field: next molecule
Consider the molecule O=C(O)c1ccc(-c2c[nH]c3ncc(-c4ccccc4)cc23)cc1C1CCCC1 + CC1(C)CCC(c2ccc(Cl)cc2)=C(CN2CCN(c3ccc(C(=O)NS(=O)(=O)c4ccc(N[C@H](CCN5CCOCC5)CSc5ccccc5)c(S(=O)(=O)C(F)(F)F)c4)cc3)CC2)C1 [Navitoclax] (partner 0.5 µM) and give its measured relative viability. 1.04

* * *

# Test system: NCI-H2347
# experiment.notes: relative viability (nuclei count vs DMSO), 5 days (fraction); higher = more cells survive
# condition: first compound 1 µM
Lab note: anything with relative viability below 0.5 is marked class 1; values at 0.5 or higher are marked class 0.

[[record]]
molecule = "NC(=O)Nc1cc(-c2cccc(F)c2)sc1C(=O)N[C@H]1CCCNC1 [AZD7762] + CC(=O)c1c(C)c2cnc(Nc3ccc(N4CCNCC4)cn3)nc2n(C2CCCC2)c1=O [Palbociclib] (partner 0.5 µM)"
discrete_label = "class 1"

[[record]]
molecule = "NC(=O)Nc1cc(-c2cccc(F)c2)sc1C(=O)N[C@H]1CCCNC1 [AZD7762] + Cc1nc(Nc2ncc(C(=O)Nc3c(C)cccc3Cl)s2)cc(N2CCN(CCO)CC2)n1 [Dasatinib] (partner 0.075 µM)"
discrete_label = "class 1"

[[record]]
molecule = "NC(=O)Nc1cc(-c2cccc(F)c2)sc1C(=O)N[C@H]1CCCNC1 [AZD7762] + CS(=O)(=O)CCNCc1ccc(-c2ccc3ncnc(Nc4ccc(OCc5cccc(F)c5)c(Cl)c4)c3c2)o1 [Lapatinib] (partner 2 µM)"
discrete_label = "class 0"

[[record]]
molecule = "NC(=O)Nc1cc(-c2cccc(F)c2)sc1C(=O)N[C@H]1CCCNC1 [AZD7762] + COc1cccc2cc(-c3nc([C@H]4CC[C@H](C(=O)O)CC4)n4ncnc(N)c34)[nH]c12 [OSI-027] (partner 0.5 µM)"
discrete_label = "class 1"

[[record]]
molecule = "NC(=O)Nc1cc(-c2cccc(F)c2)sc1C(=O)N[C@H]1CCCNC1 [AZD7762] + O=C(CCCCCCC(=O)Nc1ccccc1)NO [Vorinostat] (partner 1 µM)"
discrete_label = "class 0"


Quick check: relative viability of NC(=O)Nc1cc(-c2cccc(F)c2)sc1C(=O)N[C@H]1CCCNC1 [AZD7762] + CC(C)C[C@H](NC(=O)[C@H](Cc1ccccc1)NC(=O)c1cnccn1)B(O)O [Bortezomib] (partner 0.002 µM) under 0.5? class 0
